Recorded Metric: melting point (°C)

Cc1c(Nc2nccc(-c3cc(C#N)c4c(c3)[C@@](C)(CO)CN4)n2)cc(C#N)cc1C(=O)O :: 220
Cc1c(Nc2nccc(-c3cc(C#N)c4c(c3)[C@@](C)(CO)CN4)n2)cccc1C(=O)N1CC(C)OC(C)C1 (stereo partly shown) :: 170
CCS(=O)(=O)N(C)c1cccc(Nc2nccc(-c3cc(C#N)c4c(c3)C(C)(CO)CN4)n2)c1 (stereo not shown) :: 259
CNC(=O)c1cc(Nc2nccc(-c3cc(C#N)c4c(c3)[C@@](C)(CO)CN4)n2)c(C)cc1F :: 218

---

Recorded Metric: melting point (°C)

Examples from the recorded data:
Cc1ccc(C#N)cc1Nc1nccc(-c2cc(C#N)c3c(c2)C(C)(CO)CN3)n1 (stereo not drawn) :: 195
Cc1cc(S(C)(=O)=O)ccc1Nc1nccc(-c2cc(C#N)c3c(c2)[C@@](C)(CO)CN3)n1 :: 148
Cc1ccc(CNC2CC2)cc1Nc1nccc(-c2cc(C#N)c3c(c2)[C@@](C)(CO)CN3)n1 :: 115
Cc1cc(F)c(C(=O)NC2CCOC2)cc1Nc1nccc(-c2cc(C#N)c3c(c2)[C@@](C)(CO)CN3)n1 (single isomer, unassigned) [Compound 168] :: 246
CC(=O)Nc1cc(Cl)cc(Nc2nccc(-c3cc(C#N)c4c(c3)[C@@](C)(CO)CN4)n2)c1C :: 262

[P] Cc1ccc(C#N)cc1Nc1nccc(-c2cc(C#N)c3c(c2)[C@@](C)(CO)CN3)n1 [Compound 132]
[Q] COCCOc1ccc(P(C)(C)=O)cc1Nc1nccc(-c2cc(C#N)c3c(c2)[C@@](C)(CO)CN3)n1
query: Which record would sort first by descending melting point, P or Q ? Indicate which entry you chose by stating its label.
result: P

[1] CNCCOc1ccc(Cl)cc1Nc1nccc(-c2cc(C#N)c3c(c2)C(C)(CO)CN3)n1 (stereo not drawn)
[2] C[C@]1(CO)CNc2c(C#N)cc(-c3ccnc(Nc4cc(C#N)c(F)cc4OC4CC4)n3)cc21
query: Which record would sort first by descending melting point, 1 or 2 ? Indicate which entry you chose by stating its label.
result: 2
(2: 254 °C, 1: 168 °C)

[1] Cc1ccc(C#N)cc1Nc1nccc(-c2cc(C#N)c3c(c2)[C@@](C)(COC(=O)C(C)C)CN3)n1
[2] Cc1ccc(C#N)cc1Nc1ncnc(-c2cc(C#N)c3c(c2)[C@@](C)(CO)CN3)n1
query: For the pair 1 and 2 , which entry has the numerically smaller recorded melting point? Indicate which entry you chose by stating its label.
result: 1

[1] Cc1ccc(C#N)cc1Nc1nccc(-c2cc(C#N)c3c(c2)[C@@](C)(C(C)(C)O)CN3)n1
[2] Cc1ccc(Cl)cc1Nc1nccc(-c2cc(C#N)c3c(c2)C(C)(CO)CN3)n1 (stereo not drawn)
query: For the pair 1 and 2 , which entry has the numerically smaller recorded melting point? Indicate which entry you chose by stating its label.
result: 1

---

Recorded Metric: melting point (°C)

Examples from the recorded data:
Cc1cc(Br)c(Cl)cc1Nc1nccc(-c2cc(C#N)c3c(c2)C(C)(CO)CN3)n1 (stereo not shown) [Compound 51] :: 200
Cc1ccc(C#N)cc1Nc1nccc(-c2cc(C#N)c3c(c2)[C@@](C)(COC(=O)[C@@H](N)C(C)C)CN3)n1 [Compound 139] :: 202

[1] CC(C)Oc1ccc(C#N)cc1Nc1nccc(-c2cc(C#N)c3c(c2)[C@@](C)(CO)CN3)n1 [Compound 16]
[2] C[C@]1(CO)CNc2c(C#N)cc(-c3ccnc(Nc4cc(CO)c(F)cc4OC4CC4)n3)cc21 [Compound 208]
query: Which record would sort first by descending melting point, 1 or 2 ? Indicate which entry you chose by stating its label.
result: 2
(2: 234 °C, 1: 162 °C)

This collection of values is drawn from patent US11180487B2.
